target: ERα (Homo sapiens, UniProt P03372); assay: ERE luciferase reporter gene assay in T47D-KBluc cells (target engagement); type: cell-based; set-up: T47D human breast cancer cells stably transfected with estrogen responsive element/promoter/luciferase reporter gene; host or cells: T47D-KBluc cells; details: 10% FBS, 24 hours, Table 3 cereblon centric PROTACs, read-out: ER-α Luciferase IC50
Sequence (P03372 whole entry): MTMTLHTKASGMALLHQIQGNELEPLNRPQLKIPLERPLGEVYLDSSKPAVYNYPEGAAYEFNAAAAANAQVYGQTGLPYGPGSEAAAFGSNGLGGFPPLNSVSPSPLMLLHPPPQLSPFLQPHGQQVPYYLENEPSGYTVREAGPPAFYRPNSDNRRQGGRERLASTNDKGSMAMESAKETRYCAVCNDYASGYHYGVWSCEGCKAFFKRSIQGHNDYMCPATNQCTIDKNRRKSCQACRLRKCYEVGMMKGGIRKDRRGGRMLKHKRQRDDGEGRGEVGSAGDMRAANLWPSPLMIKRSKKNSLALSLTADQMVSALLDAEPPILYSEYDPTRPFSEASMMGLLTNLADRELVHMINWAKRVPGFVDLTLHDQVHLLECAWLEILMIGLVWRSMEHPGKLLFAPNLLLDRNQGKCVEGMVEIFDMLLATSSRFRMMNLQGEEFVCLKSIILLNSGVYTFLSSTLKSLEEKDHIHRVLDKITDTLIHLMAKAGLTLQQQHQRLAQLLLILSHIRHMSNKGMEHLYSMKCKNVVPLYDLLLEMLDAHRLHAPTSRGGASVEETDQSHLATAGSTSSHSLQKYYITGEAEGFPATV
quantity measured: IC50 (nM)

molecule: O=C1CCC(N2Cc3nc(N4CCN(CC5CCN(c6ccc(Oc7c(-c8ccc(Br)cc8)sc8cc(O)ccc78)cc6)CC5)CC4)ccc3C2=O)C(=O)N1 (stereo not drawn)
tgt: ERα (Homo sapiens, UniProt P03372)
units label: nM
value reported: 6.9

molecule: O=C1CCC(N2C(=O)c3ccc(NCCCOCCCOCCCCOc4ccc(Oc5c(-c6ccc(Br)cc6)sc6cc(O)ccc56)cc4)cc3C2=O)C(=O)N1 (stereo not drawn)
tgt: ERα (Homo sapiens, UniProt P03372)
units label: nM
value reported: 28.7

molecule: O=C1CCC(N2Cc3c(cc(F)c(N4CCN(C5CCN(CCOc6ccc(Oc7c(-c8ccc(Br)cc8)sc8cc(O)ccc78)cc6)CC5)CC4)c3F)C2=O)C(=O)N1 (stereo not drawn)
tgt: ERα (Homo sapiens, UniProt P03372)
units label: nM
value reported: 3.5

molecule: O=C1CC[C@H](N2Cc3cc(CCN4CCCN(CCCCOc5ccc(Oc6c(-c7ccc(Br)cc7)sc7cc(O)ccc67)cc5)CC4)ccc3C2=O)C(=O)N1
tgt: ERα (Homo sapiens, UniProt P03372)
units label: nM
value reported: 1.9

molecule: O=C1CCC(N2Cc3cc(N4CC(CN5CCC(c6ccc(Oc7c(-c8ccc(Br)cc8)sc8cc(O)ccc78)cc6)CC5)C4)ccc3C2=O)C(=O)N1 (stereo not drawn)
tgt: ERα (Homo sapiens, UniProt P03372)
units label: nM
value reported: 6.7

a. O=C1CCC(N2Cc3cc(N4CCN(C5CC6(C5)CN(CCOc5ccc(Oc7c(-c8ccc(C(F)(F)F)cc8)sc8cc(O)ccc78)cc5)C6)CC4)ccc3C2=O)C(=O)N1 (stereo not drawn)
b. O=C1CCC(N2Cc3nc(N4CCN(CC5CCN(c6ccc(Oc7c(-c8ccc(F)cc8)sc8cc(O)ccc78)cc6)CC5)CC4)ccc3C2=O)C(=O)N1 (stereo not drawn)
Task: Choose between a and b : whose measured IC50 value is numerically larger? Label of pick, please.
Output: a

A. O=C1CCC(N2Cc3cc(N4CCN(CC5CCN(c6ccc(Oc7c(-c8ccc(F)cc8)sc8cc(O)ccc78)cc6)CC5)CC4)ccc3C2=O)C(=O)N1 (stereo not drawn)
B. O=C1CCC(N2Cc3cc(NCCCOCCCOCCCCOc4ccc(Oc5c(-c6ccc(Br)cc6)sc6cc(O)ccc56)cc4)ccc3C2=O)C(=O)N1 (stereo not drawn)
Task: Could you check which of A and B has a smaller value for IC50? Label of pick, please.
Output: A
